Target sequence: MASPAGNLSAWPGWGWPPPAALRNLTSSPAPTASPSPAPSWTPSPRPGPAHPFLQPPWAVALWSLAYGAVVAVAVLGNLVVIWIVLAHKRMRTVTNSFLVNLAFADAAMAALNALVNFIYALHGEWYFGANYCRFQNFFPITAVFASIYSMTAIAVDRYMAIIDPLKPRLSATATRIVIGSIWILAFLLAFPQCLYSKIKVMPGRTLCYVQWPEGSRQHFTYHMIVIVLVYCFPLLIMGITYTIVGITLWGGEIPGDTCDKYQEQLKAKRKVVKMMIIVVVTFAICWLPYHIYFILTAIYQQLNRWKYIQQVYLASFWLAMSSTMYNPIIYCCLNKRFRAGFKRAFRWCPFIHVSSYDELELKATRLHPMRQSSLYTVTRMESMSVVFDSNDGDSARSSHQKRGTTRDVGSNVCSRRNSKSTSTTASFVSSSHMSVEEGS
Measured pKi accompanies every entry in the list below.
// scale note: pKi = -log10(conc_M); give the bare number

Looking for the measured pKi of CC[C@H](NC(=O)c1c(C)c(-c2ccccc2)nc2ccccc12)c1ccccc1 , can you help?
8.25

Looking for the measured pKi of CCc1c(-c2ccccc2)nc2ccccc2c1C(=O)N[C@@H](CC)c1ccccc1 , can you help?
7.92

====

measured_property: melting point

Solved entries (count: 5):
> print(dat)
                                   molecule  observed.result
1  COC(=O)C(NC(=O)c1c(C)c(-c2ccccc2)nc2ccccc12)c1ccccc1 (stereo not shown)    180 to 181 °C
2  CCc1c(-c2ccccc2)nc2ccccc2c1C(=O)NC(C(=O)OC)c1ccccc1 (stereo not shown)    156 to 157 °C
3  COC(=O)C(NC(=O)c1cc(-c2ccccc2)nc2cc(Cl)ccc12)c1ccccc1 (stereo not shown)    180 to 183 °C
4  COC(=O)C(NC(=O)c1cc(-c2ccc(OC)cc2)nc2ccccc12)c1ccccc1 (stereo not shown)    182 to 183 °C
5  COC(=O)C(NC(=O)c1cc(-c2ccccc2)nc2c(O)cccc12)c1ccccc1 (stereo not shown)    178 to 180 °C

Looking for the measured melting point of COC(=O)C(NC(=O)c1cc(-c2ccc(O)cc2)nc2ccccc12)c1ccccc1 (stereo not shown) , can you help?
226 to 227 °C

Looking for the measured melting point of O=C(NC(Cc1ccccc1)c1ccccc1)c1cc(-c2ccccc2)nc2ccccc12 (stereo not shown) , can you help?
194 to 196 °C

Looking for the measured melting point of CCC(NC(=O)c1cc(-c2ccccc2)nc2ccccc12)c1ccc(C)cc1 (stereo not shown) , can you help?
160 to 162 °C

Looking for the measured melting point of COC(=O)C(NC(=O)c1cc(-c2ccccc2)nc2ccc(C)cc12)c1ccccc1 (stereo not shown) , can you help?
179 to 181 °C

Looking for the measured melting point of CCCC(NC(=O)c1cc(-c2ccccc2)nc2ccccc12)c1ccccc1 (stereo not shown) , can you help?
149 to 150 °C

====

measured_property: melting point

Solved entries (count: 2):
> print(dat)
                                   compound  observed.result
1  COC(=O)C(NC(=O)c1cc(-c2ccccc2)nc2ccc(F)cc12)c1ccccc1 (stereo not drawn)    174 to 176 °C
2  COC(=O)C(NC(=O)c1cc(-c2ccccc2)nc2ccc(OC)cc12)c1ccccc1 (stereo not drawn)    209 to 211 °C

Looking for the measured melting point of COC(=O)C(NC(=O)c1cc(-c2ccc(Cl)cc2Cl)nc2ccccc12)c1ccccc1 (stereo not drawn) , can you help?
142 to 143 °C
